tested on: HoblOBP2 and HoblOBP4 mixtures; assay: Competitive binding assay with binary protein mixture OBP2-OBP4; set-up: species or system Holotrichia oblita; settings: HoblOBP2 and HoblOBP4 equimolar mixture and 1-NPN 2 µM, ligand 4–40 µM
QUANTITY_MEASURED: Affinity (in words)

CC1=C(/C=C/C(C)=C/C=C/C(C)=C/CO)C(C)(C)CCC1 = good affinity
C=CCc1ccc(O)c(OC)c1 = good affinity
O=C/C=C/c1ccccc1 = good affinity

###

Please provide measured pKi for the entries that follow.
target: HoblOBP3 (Holotrichia oblita); assay: biochemical; format: binding
Sequence (G9BWQ7 entry or part of it): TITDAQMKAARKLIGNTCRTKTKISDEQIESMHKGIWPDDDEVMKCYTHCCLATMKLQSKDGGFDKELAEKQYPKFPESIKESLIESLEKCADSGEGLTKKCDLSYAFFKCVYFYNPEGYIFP
pKi: −log10 of the molar value.

// known answers, use as guide
CC1=CCC(O)(C(C)C)CC1 (stereo not shown) [Terpinen-4-ol] = < 4.30
O=C/C=C/c1ccccc1 [Cinnamaldehyde] = 4.52
CCCCCC=O [1-Hexanal] = < 4.30
CC(C)=CCC/C(C)=C/CO [Geraniol] = < 4.30
CC(=O)CCC=C(C)C [6-Methyl-5-hepten-2-one] = < 4.30

Look up pKi for the entries below, preserving their order.
1. C=C(C)C1CC=C(C)CC1 (stereo not shown) [Limonene]
2. CC/C=C\CCO [cis-3-Hexen-1-ol]
3. CC(=O)/C=C/C1C(C)=CCCC1(C)C (stereo not drawn) [α-Ionone]

Result:
1. < 4.30
2. < 4.30
3. 4.98

Look up pKi for the entries below, preserving their order.
1. CC(=O)/C=C/C1=C(C)CCCC1(C)C [β-Ionone]
2. CC1=CC[C@@H](C(C)(C)O)CC1 [α-Terpineol]
3. CCCCCCC [Heptane]
4. O=Cc1ccccc1 [Benzaldehyde]
5. C=C1CC/C=C(\C)CC[C@@H]2[C@@H]1CC2(C)C [β-Caryophyllene]

Result:
5.28
< 4.30
< 4.30
< 4.30
< 4.30
